- Tested on: TK-10 renal
- PROCEDURE TEXT: NCI tumour cell line growth inhibition, 48 h; in the data active = GI50 below about 0.43 µM; inactive = the rest
Where a SMILES comes first, the peptide text is derived from it. [ ]: non-standard residue; d: D form. The star is where a group is joined. ξ: configuration not given here. dIva = CC[C@@](C)(N)C(=O)O; Aib = CC(C)(N)C(=O)O; ξP = O=C(O)C1CCCN1; βAla = NCCC(=O)O; X5 = OCN*
// allowed return values: active, inactive

{"columns": ["MOLECULE", "ASSIGNED CATEGORY"],
 "data": [
  ["O=C1CC2OCC=C3CN4CCC56c7ccccc7N1C5C2C3CC46 (centres undefined) (tested in a mixture with another compound)", "inactive"],
  ["O=C(N/N=C/c1cccc(O)c1)c1ccc(C(F)(F)F)nc1Nc1cccc(C(F)(F)F)c1", "inactive"],
  ["Cn1c(=O)c2[nH]cnc2n(C)c1=O.[CH2-]C(Cc1cccc2cc(C(=O)O)c(=O)oc12)OC.[Hg+2].[OH-] (centres undefined)", "inactive"]
]}

For CC[C@@](C)(NC(=O)[C@H](C)NC(=O)CCNC(=O)C(C)(C)NC(=O)[C@H](C)NC(=O)[C@@H]1CCCN1C(=O)[C@@](C)(CC)NC(=O)[C@H](Cc1ccccc1)NC(=O)C1CCCN1C(=O)C(C)(C)NC(=O)C1CCCN1C(=O)C(C)(C)NC(C)=O)C(=O)NCCC(=O)N[C@@H](CC(C)C)C(=O)NC(C)(C)C(=O)NCCC(=O)N[C@@H](CC(C)C)C(=O)NC(C)(C)C(=O)NC(C)(C)C(=O)N[C@@H](CC(C)C)C(=O)NCCC(=O)NCO (some centres undefined) (Ac-[Aib][ξP][Aib][ξP]F[dIva]PA[Aib][βAla]A[dIva][βAla]L[Aib][βAla]L[Aib][Aib]L[βAla]-X5) , what call appears in the results of this test?
active

// data source = PubChem BioAssay (NCI)
